- Test system: hvCAS (human ventricular cardiac anisotropic sheet of HES2 hESC-derived ventricular cardiomyocytes)
- Assay type: cell-based
- run_parameters: human, pH 7.4
observed_property: No. of Re-entry, 1st dose
Lab note: jot the number down without any unit.

CC(C)(C)c1ccc(C(O)CCCN2CCC(C(O)(c3ccccc3)c3ccccc3)CC2)cc1 (centres unmarked) : 0

Consider now this further molecule.
Name the recorded No. of Re-entry, 1st dose for Cc1cccc(C)c1NC(=O)C(C)N (centres unmarked) [TOC, tocainide] .
0

---

Items are presented alongside their recorded Chirality of Re-entry: Clock-wise.
- Test system: hvCAS (human ventricular cardiac anisotropic sheet of HES2 hESC-derived ventricular cardiomyocytes)
- Type: cell-based
- run_parameters: human, pH 7.4
Lab note: jot the number down without any unit.

Recorded results for 4 molecules are shown here.
Cc1cccc(C)c1NC(=O)C(C)N (centres unmarked) [TOC, tocainide] : 1
CCN(CC)CCNC(=O)c1ccc(N)cc1 [PROC, procainamide] : 0
O=C(NCC1CCCCN1)c1cc(OCC(F)(F)F)ccc1OCC(F)(F)F (centres unmarked) [FLE, flecainide] : 1
CC(C)(C)c1ccc(C(O)CCCN2CCC(C(O)(c3ccccc3)c3ccccc3)CC2)cc1 (centres unmarked) : 1

Name the recorded Chirality of Re-entry: Clock-wise for COc1cc(N)c(Cl)cc1C(=O)NC1CCN(CCCOc2ccc(F)cc2)CC1OC (centres unmarked) [CISA, cisapride] .
3

Each recorded value in this set is attributed to patent US12503717B2.
